Assay: Toxicokinetics of infigratinib in juvenile rat plasma after oral gavage
Assay type: in vivo, Crl:WI(Han) rat
Details: female, Crl:WI(Han), rat, plasma, po, 0.3 mg/kg/day, Tmax, Female rats, 0.3 mg/kg/day oral, PND 23

molSmiles | Tmax [h]
CCN1CCN(c2ccc(Nc3cc(N(C)C(=O)Nc4c(Cl)c(OC)cc(OC)c4Cl)ncn3)cc2)CC1 | 3

====

Assay: Toxicokinetics of infigratinib in juvenile rat plasma after oral gavage
Assay type: in vivo, Crl:WI(Han) rat
Conditions: female, Crl:WI(Han), rat, plasma, po, 1 mg/kg/day, AUC(0-t), Female rats, 1.0 mg/kg/day oral, PND 7

molSmiles | AUC(0-t), ng·h/mL
CCN1CCN(c2ccc(Nc3cc(N(C)C(=O)Nc4c(Cl)c(OC)cc(OC)c4Cl)ncn3)cc2)CC1 | 516
